Assay: self-splicing fitness, log relative to wild type (ln ratio); higher = more splicing; Tetrahymena group I intron in knt gene, E. coli kanamycin selection, DiMSum; sequences stand for … in CUCUCU…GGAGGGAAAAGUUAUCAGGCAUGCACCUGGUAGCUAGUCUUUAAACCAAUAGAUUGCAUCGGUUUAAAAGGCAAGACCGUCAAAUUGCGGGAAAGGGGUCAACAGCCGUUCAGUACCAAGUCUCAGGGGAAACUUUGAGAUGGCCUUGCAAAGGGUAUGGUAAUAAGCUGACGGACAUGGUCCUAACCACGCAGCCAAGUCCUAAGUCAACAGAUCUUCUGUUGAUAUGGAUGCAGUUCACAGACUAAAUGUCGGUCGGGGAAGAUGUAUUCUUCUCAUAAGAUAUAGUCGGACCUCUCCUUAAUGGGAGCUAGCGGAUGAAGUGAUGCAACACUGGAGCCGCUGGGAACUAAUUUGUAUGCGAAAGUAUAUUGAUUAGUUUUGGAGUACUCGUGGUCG;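 further: selection with 25 µg/mL kanamycin versus none on LB agar overnight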
Details: 30 °C
Each record here notes measured self-splicing fitness (ln).
experimental_endpoint: self-splicing fitness (ln)

[[record]]
sequence_entry = "CGUGAGCAAUAUUACGAAUA"
experimental_value = -2.8

[[record]]
sequence_entry = "AGCUAGCAAUAUUACGAUUC"
experimental_value = -1.8

[[record]]
sequence_entry = "GUUCAGCAAUAUUACGCACA"
experimental_value = 1.48

[[record]]
sequence_entry = "CGCUAGCAAUAUUACGAUGA"
experimental_value = -1.14

[[record]]
sequence_entry = "CUGGAGCAAUAUUACGCGUG"
experimental_value = -3.27

[[record]]
sequence_entry = "GGAGAGCAAUAUUACGUAUC"
experimental_value = -2.61

[[record]]
sequence_entry = "AUUGAGCAAUAUUACGGACA"
experimental_value = -2.68

[[record]]
sequence_entry = "UCGGAGCAAUAUUACGACGC"
experimental_value = -1.25

[[record]]
sequence_entry = "GGUCAGCAAUAUUACGCGCC"
experimental_value = 0.245

[[record]]
sequence_entry = "CCGAAGCAAUAUUACGAGGG"
experimental_value = -3

[[record]]
sequence_entry = "UGUGAGCAAUAUUACGAAUG"
experimental_value = -2.16

[[record]]
sequence_entry = "CUCAAGCAAUAUUACGGCUU"
experimental_value = -3.53

[[record]]
sequence_entry = "GAUAAGCAAUAUUACGGAGC"
experimental_value = -3.95

[[record]]
sequence_entry = "GGCUAGCAAUAUUACGGACA"
experimental_value = -0.485

[[record]]
sequence_entry = "GAAGAGCAAUAUUACGAGAC"
experimental_value = -3.95

[[record]]
sequence_entry = "AACAAGCAAUAUUACGCUGU"
experimental_value = -3.38

[[record]]
sequence_entry = "GCGCAGCAAUAUUACGCUCA"
experimental_value = -0.576

[[record]]
sequence_entry = "GCGCAGCAAUAUUACGUUAG"
experimental_value = -4.26


* * *

Each record here notes measured self-splicing fitness (ln).
Experiment: self-splicing fitness, log relative to wild type (ln ratio); higher = more splicing; Tetrahymena group I intron in knt gene, E. coli kanamycin selection, DiMSum; sequences stand for … in CUCUCU…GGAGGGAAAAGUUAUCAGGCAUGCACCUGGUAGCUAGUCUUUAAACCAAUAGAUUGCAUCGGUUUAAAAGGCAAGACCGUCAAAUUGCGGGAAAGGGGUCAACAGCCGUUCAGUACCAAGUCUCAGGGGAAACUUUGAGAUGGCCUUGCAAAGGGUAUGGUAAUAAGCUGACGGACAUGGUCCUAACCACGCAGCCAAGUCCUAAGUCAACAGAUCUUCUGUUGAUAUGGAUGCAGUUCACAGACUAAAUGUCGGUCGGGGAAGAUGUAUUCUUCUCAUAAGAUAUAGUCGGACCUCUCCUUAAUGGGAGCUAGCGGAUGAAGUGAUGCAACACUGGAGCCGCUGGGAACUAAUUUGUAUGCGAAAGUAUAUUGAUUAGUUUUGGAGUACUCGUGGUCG
Settings: 37 °C
experimental_endpoint: self-splicing fitness (ln)

[[record]]
sequence_entry = "GCCGAGCAAUAUUACGUAGU"
experimental_endpoint = "self-splicing fitness (ln)"
experimental_value = -0.503

[[record]]
sequence_entry = "AAUGAGCAAUAUUACGAUUG"
experimental_endpoint = "self-splicing fitness (ln)"
experimental_value = -1.14

[[record]]
sequence_entry = "UAACAGCAAUAUUACGAUCG"
experimental_endpoint = "self-splicing fitness (ln)"
experimental_value = -0.00548

[[record]]
sequence_entry = "AAAUAGCAAUAUUACGGAUA"
experimental_endpoint = "self-splicing fitness (ln)"
experimental_value = -1.1

[[record]]
sequence_entry = "UUUAAGCAAUAUUACGAGAA"
experimental_endpoint = "self-splicing fitness (ln)"
experimental_value = -0.298

[[record]]
sequence_entry = "UAGAAGCAAUAUUACGGAUA"
experimental_endpoint = "self-splicing fitness (ln)"
experimental_value = -0.43

[[record]]
sequence_entry = "CACGAGCAAUAUUACGACAG"
experimental_endpoint = "self-splicing fitness (ln)"
experimental_value = -0.496

[[record]]
sequence_entry = "ACAAAGCAAUAUUACGAGAC"
experimental_endpoint = "self-splicing fitness (ln)"
experimental_value = -2.57

[[record]]
sequence_entry = "CGCAAGCAAUAUUACGCCGA"
experimental_endpoint = "self-splicing fitness (ln)"
experimental_value = -2

[[record]]
sequence_entry = "AAAUAGCAAUAUUACGUUAU"
experimental_endpoint = "self-splicing fitness (ln)"
experimental_value = -2

[[record]]
sequence_entry = "GGGCAGCAAUAUUACGAGUU"
experimental_endpoint = "self-splicing fitness (ln)"
experimental_value = -1.27

[[record]]
sequence_entry = "CGAAAGCAAUAUUACGUUAA"
experimental_endpoint = "self-splicing fitness (ln)"
experimental_value = -1.42

[[record]]
sequence_entry = "AGGUAGCAAUAUUACGCAAG"
experimental_endpoint = "self-splicing fitness (ln)"
experimental_value = -1.26

[[record]]
sequence_entry = "CCACAGCAAUAUUACGUCGG"
experimental_endpoint = "self-splicing fitness (ln)"
experimental_value = -1.95

[[record]]
sequence_entry = "AGACAGCAAUAUUACGAAGA"
experimental_endpoint = "self-splicing fitness (ln)"
experimental_value = -2.41

[[record]]
sequence_entry = "GAACAGCAAUAUUACGGUAC"
experimental_endpoint = "self-splicing fitness (ln)"
experimental_value = -0.573

[[record]]
sequence_entry = "CUCGAGCAAUAUUACGCAGG"
experimental_endpoint = "self-splicing fitness (ln)"
experimental_value = -2.36

[[record]]
sequence_entry = "CAAGAGCAAUAUUACGGGGG"
experimental_endpoint = "self-splicing fitness (ln)"
experimental_value = -2.62

[[record]]
sequence_entry = "AACGAGCAAUAUUACGUAAU"
experimental_endpoint = "self-splicing fitness (ln)"
experimental_value = -1.75

[[record]]
sequence_entry = "GAUGAGCAAUAUUACGACUC"
experimental_endpoint = "self-splicing fitness (ln)"
experimental_value = -0.273

[[record]]
sequence_entry = "CUCCAGCAAUAUUACGAGUU"
experimental_endpoint = "self-splicing fitness (ln)"
experimental_value = -2.66

[[record]]
sequence_entry = "UUGAAGCAAUAUUACGUCGG"
experimental_endpoint = "self-splicing fitness (ln)"
experimental_value = -0.024

[[record]]
sequence_entry = "GAUCAGCAAUAUUACGUUGU"
experimental_endpoint = "self-splicing fitness (ln)"
experimental_value = -2.78

[[record]]
sequence_entry = "CCUAAGCAAUAUUACGAUGG"
experimental_endpoint = "self-splicing fitness (ln)"
experimental_value = -2.09

[[record]]
sequence_entry = "AGGAAGCAAUAUUACGAUUA"
experimental_endpoint = "self-splicing fitness (ln)"
experimental_value = -1.21

[[record]]
sequence_entry = "GAAGAGCAAUAUUACGAACG"
experimental_endpoint = "self-splicing fitness (ln)"
experimental_value = -2.41

[[record]]
sequence_entry = "UACUAGCAAUAUUACGCAAA"
experimental_endpoint = "self-splicing fitness (ln)"
experimental_value = -0.966

[[record]]
sequence_entry = "CCAAAGCAAUAUUACGUACA"
experimental_endpoint = "self-splicing fitness (ln)"
experimental_value = -3.32

[[record]]
sequence_entry = "UGCGAGCAAUAUUACGGAGG"
experimental_endpoint = "self-splicing fitness (ln)"
experimental_value = -1.17

[[record]]
sequence_entry = "GAAAAGCAAUAUUACGCUAC"
experimental_endpoint = "self-splicing fitness (ln)"
experimental_value = -2.37

[[record]]
sequence_entry = "GUGGAGCAAUAUUACGUAAU"
experimental_endpoint = "self-splicing fitness (ln)"
experimental_value = -0.812

[[record]]
sequence_entry = "AGCAAGCAAUAUUACGUCGC"
experimental_endpoint = "self-splicing fitness (ln)"
experimental_value = -0.083

[[record]]
sequence_entry = "GUCUAGCAAUAUUACGUACA"
experimental_endpoint = "self-splicing fitness (ln)"
experimental_value = -0.376

[[record]]
sequence_entry = "GGAGAGCAAUAUUACGACAU"
experimental_endpoint = "self-splicing fitness (ln)"
experimental_value = -1.55

[[record]]
sequence_entry = "ACAAAGCAAUAUUACGAAAG"
experimental_endpoint = "self-splicing fitness (ln)"
experimental_value = -1.32

[[record]]
sequence_entry = "AUCAAGCAAUAUUACGGGCG"
experimental_endpoint = "self-splicing fitness (ln)"
experimental_value = -0.467

[[record]]
sequence_entry = "UCUUAGCAAUAUUACGUUGA"
experimental_endpoint = "self-splicing fitness (ln)"
experimental_value = -1.94

[[record]]
sequence_entry = "AUCCAGCAAUAUUACGUGCG"
experimental_endpoint = "self-splicing fitness (ln)"
experimental_value = -0.875

[[record]]
sequence_entry = "UUAAAGCAAUAUUACGUGUU"
experimental_endpoint = "self-splicing fitness (ln)"
experimental_value = -1.96

[[record]]
sequence_entry = "CUAUAGCAAUAUUACGCAGU"
experimental_endpoint = "self-splicing fitness (ln)"
experimental_value = -2.55

[[record]]
sequence_entry = "GUUAAGCAAUAUUACGCCGU"
experimental_endpoint = "self-splicing fitness (ln)"
experimental_value = -1.39

[[record]]
sequence_entry = "CUAGAGCAAUAUUACGGCUA"
experimental_endpoint = "self-splicing fitness (ln)"
experimental_value = -1.17


Numbers sourced from the supplement of paper PMC7877785.
